Origin of measurements: the Immune Epitope Database (IEDB)

target: HLA-A*02:12; test: IEDB peptide-MHC binding, purified MHC/competitive/fluorescence; filed as Kd, often an IC50 or EC50 that approximates it; bounds were set here for any values at or beyond the usual limits of such assays; conditions: source organism: Vibrio cholerae 2740-80
Experimental Endpoint: Kd

IN: For the sequence `HSYLWDHQM` , give its reported Kd.
OUT: ≥ 20 µM

* * *

biological target: HLA-B*27:03; assay: IEDB peptide-MHC binding, purified MHC/competitive/fluorescence; filed as Kd, often an IC50 or EC50 that approximates it; bounds were set here for any values at or beyond the usual limits of such assays; conditions: source organism: Zaire ebolavirus
pKd: −log10 of the molar value.
Experimental Endpoint: pKd

IN: For the sequence `SMHYKLDEV` , give its reported pKd.
OUT: ≤ 4.70

IN: For the sequence `DLEKYNLAF` , give its reported pKd.
OUT: ≤ 4.70

IN: For the sequence `LESLTDREL` , give its reported pKd.
OUT: ≤ 4.70

IN: For the sequence `ILNRKAIDF` , give its reported pKd.
OUT: ≤ 4.70

* * *

target: HLA-B*08:03; experiment: IEDB peptide-MHC binding, purified MHC/direct/fluorescence; filed as Kd, often an IC50 or EC50 that approximates it; bounds were set here for any values at or beyond the usual limits of such assays; conditions: source organism: Giardia lamblia ATCC 50803
Experimental Endpoint: Kd

IN: For the sequence `RENQVAVVR` , give its reported Kd.
OUT: ≥ 20 µM

* * *

molecular target: HLA-A*26:03; assay: IEDB peptide-MHC binding, purified MHC/competitive/fluorescence; filed as Kd, often an IC50 or EC50 that approximates it; bounds were set here for any values at or beyond the usual limits of such assays; conditions: source organism: Mycobacterium tuberculosis variant bovis BCG str. Pasteur 1173P2
Experimental Endpoint: Kd

IN: For the sequence `KVMVICYAY` , give its reported Kd.
OUT: ≥ 20 µM

* * *

target: HLA-A*68:02; assay: IEDB peptide-MHC binding, purified MHC/competitive/radioactivity; filed as Kd, often an IC50 or EC50 that approximates it; bounds were set here for any values at or beyond the usual limits of such assays; conditions: source organism: Dengue virus 3 Martinique/1243/1999
Experimental Endpoint: Kd (nM)
Use nM as the unit, but write only the number.

IN: For the sequence `MAVGLVSILA` , give its reported Kd.
OUT: 3.23

* * *

target: HLA-A*24:03; test: IEDB peptide-MHC binding, purified MHC/direct/fluorescence; filed as Kd, often an IC50 or EC50 that approximates it; bounds were set here for any values at or beyond the usual limits of such assays; settings: source organism: Vibrio cholerae V52
Experimental Endpoint: Kd

IN: For the sequence `MGMEQTMSV` , give its reported Kd.
OUT: ≥ 20 µM

* * *

target: HLA-A*01:01; assay: IEDB peptide-MHC binding, purified MHC/direct/fluorescence; filed as Kd, often an IC50 or EC50 that approximates it; bounds were set here for any values at or beyond the usual limits of such assays; conditions: source organism: Influenza A virus (A/Viet Nam/HN/2004(H5N1))
Experimental Endpoint: Kd

IN: Provide Kd, tested on HLA-A*01:01, for `RRVRDNMTK` .
OUT: ≥ 20 µM

* * *

molecular target: HLA-A*31:01; experiment: IEDB peptide-MHC binding, purified MHC/direct/fluorescence; filed as Kd, often an IC50 or EC50 that approximates it; bounds were set here for any values at or beyond the usual limits of such assays; settings: source organism: Influenza A virus (A/chicken/Hubei/wk/1997(H5N1))
pKd: −log10 of the molar value.
Experimental Endpoint: pKd

IN: For the sequence `MKWMMAMKY` , give its reported pKd.
OUT: ≤ 4.70
